# reported IC50; entries follow
system_under_test: T1, human insulin receptor (human, UniProt P06213 28-1382)
T1 construct: whole, on cells
protocol: competition with 125I-insulin, receptor membranes, SPA
Bridges are numbered along the chain shown (N, C = ends). Roman numbers before positions name the chains, in order. Where no end group is shown, it is not given here.
Write it as a number; the unit pM goes unstated.

binder | output_unit | IC50
IGF-1 A:B (H5D10Y16L17) DPI (ligand, disulfide I:6-I:11, I:20-II:18, I:7-II:6) chain 1: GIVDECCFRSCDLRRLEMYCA-NH2 chain 2: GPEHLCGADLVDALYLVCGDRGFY-NH2 | pM | 160
IGF-1 A:IGF-1 B(1-8)-In (9-17)-IGF-1 B(18-30) (ligand, disulfide I:6-I:11, I:20-II:18, I:7-II:6) chain 1: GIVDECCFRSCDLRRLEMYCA-NH2 chain 2: GPETLCGSHLVEALYLVCGDRGFYFNKPT-NH2 | pM | 1590
IGF-1 A (H8 A9 N21):B(H5D10Y16L17 A22) DPI A-COOH (ligand) chain 1: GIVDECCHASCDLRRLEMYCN chain 2: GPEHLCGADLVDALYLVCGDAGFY | pM | 120
IGF-1 A:B (ligand, disulfide I:6-I:11, I:20-II:18, I:7-II:6, also called IGF-1 A and B chain heteroduplex) chain 1: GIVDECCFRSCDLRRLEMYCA-NH2 chain 2: GPETLCGAELVDALQFVCGDRGFYFNKPT-NH2 | pM | 10400

Report IC50 for IGF-1 A:B (H5D10Y16L17) (S=O)DPI (ligand, disulfide I:6-I:11, I:20-II:18, I:7-II:6; also: (S=O), residue not given here, the only Met stands at A18) chain 1: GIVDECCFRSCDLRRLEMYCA-NH2 chain 2: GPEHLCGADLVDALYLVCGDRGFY-NH2
250
